Target: "Met cut" metalloprotease (AD metalloprotease) purified from AD brain homogenate (Homo sapiens, UniProt P52888)
Construct: isolate and purify an AD metalloprotease from AD brain homogenate; from tissue; host or cells: brain of Alzheimer's disease patients
Sequence (P52888 whole entry): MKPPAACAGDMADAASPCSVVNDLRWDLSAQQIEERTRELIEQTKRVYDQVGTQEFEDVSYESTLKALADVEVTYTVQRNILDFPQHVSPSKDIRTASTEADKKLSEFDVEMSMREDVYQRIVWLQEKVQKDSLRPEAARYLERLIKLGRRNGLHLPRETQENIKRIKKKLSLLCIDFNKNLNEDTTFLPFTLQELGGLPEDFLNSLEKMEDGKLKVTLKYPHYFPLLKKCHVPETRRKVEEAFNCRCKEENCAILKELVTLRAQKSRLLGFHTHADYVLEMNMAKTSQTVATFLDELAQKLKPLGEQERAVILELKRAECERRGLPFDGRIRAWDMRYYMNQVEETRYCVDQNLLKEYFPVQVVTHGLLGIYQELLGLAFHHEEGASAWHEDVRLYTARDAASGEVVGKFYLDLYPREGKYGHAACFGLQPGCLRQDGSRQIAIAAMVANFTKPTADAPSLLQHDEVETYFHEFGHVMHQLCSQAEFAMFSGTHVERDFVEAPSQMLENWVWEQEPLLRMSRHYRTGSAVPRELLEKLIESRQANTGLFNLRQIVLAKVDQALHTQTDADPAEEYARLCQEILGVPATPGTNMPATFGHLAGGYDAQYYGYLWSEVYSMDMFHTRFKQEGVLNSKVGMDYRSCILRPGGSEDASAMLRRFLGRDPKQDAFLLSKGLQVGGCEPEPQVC
Assay: Effect of additives on synthetic peptide substrate (P1) degrading activity of the purified Met cut metalloprotease
Format: biochemical
Conditions: concentrations as in Table II; divalent ions at 2 mM
Quantity name: effect on metalloprotease activity (in words)

Consider the following illustrative entries.
O=C(O)CN(CCOCCOCCN(CC(=O)O)CC(=O)O)CC(=O)O: Strong inhibition
CC(C)CC(NC(=O)C1OC1C(=O)O)C(=O)NCCCCN=C(N)N (centres unmarked): less
CC(C)CC(C(=O)NO)C(=O)N[C@@H](C)C(=O)NCC(N)=O (some centres unmarked): Strong inhibition
CCN1C(=O)C=CC1=O [N-ethylmaleimide]: strong inhibition
c1cnc2c(c1)ccc1cccnc12: Strong inhibition

Input line: # return recorded effect on metalloprotease activity (in words) for entry O=C(O)c1cc[c]([Hg][OH])cc1 [Hydroxymercurybenzoate, hydroxymercurybenzoate]
Output line: strong inhibition
